Test system: L1210 leukemia ip in BDF1 mice, survival T/C
measurementDescription: NCI In Vivo Anticancer Drug Screen. Data for tumor model L1210 Leukemia (intraperitoneal) in B6D2F1 (BDF1) mice
settings: endpoint: mean survival time; dose: 100.0 mg/kg/injection; schedule: Q04DX003 (ip); vehicle: other; higher = longer survival
Inconclusive results and toxic doses are left out.
quantityKind: T/C

Which T/C reading was recorded for the compound NC(=O)c1cc(Cl)cc(Cl)c1Br ? 95 % of control

Can you share its T/C? I mean this compound: CCCB(O)O 106 % of control

Fill in: T/C of CC(/C=N/NC(=O)NO)=N\NC(=O)NO is ___ 112 % of control

T/C lookup needed for Cc1nc(N)nc(C)c1N=Nc1ccc(Br)cc1 , thanks. 90 % of control

Given O/N=C1\CCCC\C1=N/O.O/N=C1\CCCC\C1=N/O.[Pd] , state its recorded T/C. 102 % of control

Recorded T/C for CCOC(=O)CC(COC)C(C(=O)OCC)C(=O)OCC (stereo unspecified) , please? 88 % of control

Form field: reported T/C of CC(C)CC(NS(=O)(=O)Cc1ccccc1)C(=O)NNc1ccccc1 (stereo unspecified) 95 % of control

Given the entry Nc1ccccc1N=Cc1cc(F)ccc1[N+](=O)[O-] , report its measured T/C. 97 % of control

What T/C value was documented for this compound, O=C(N/N=C/c1ccccc1)c1ccc(Cl)c(Cl)c1 ? 100 % of control

Which T/C is reported for this compound? O=C(CCl)COP(=O)(O)O 106 % of control

Name the recorded T/C for CCCCCCN(CCCCCC)C(C)=O . 98 % of control

====

Give measured T/C for each item. Keep answers brief.
System: L1210 leukemia ip in BDF1 mice, survival T/C
measurementDescription: NCI In Vivo Anticancer Drug Screen. Data for tumor model L1210 Leukemia (intraperitoneal) in B6D2F1 (BDF1) mice
settings: endpoint: mean survival time; dose: 100.0 mg/kg/injection; schedule: Q01DX001 (ip); vehicle: Klucel (hydroxypropylcellulose) (HPC); higher = longer survival
Toxic doses and inconclusive results are not listed.

What does the record list as T/C for Nc1cc(Nc2ccc(Cl)[nH]c2=S)nc(N)n1 ? 90 % of control

So what's the measured T/C for this one? CC(Cl)(/N=N\C(C)(Cl)c1ccc(Cl)cc1)c1ccc(Cl)cc1 (centres undefined) 96 % of control

# input compound: Oc1c(Br)cc(Br)cc1/C=N/N=C/c1cc(Br)cc(Br)c1O ; wanted: its T/C 90 % of control

# lookup: T/C of CSc1ccc(OC2CCCCC2OS(C)(=O)=O)cc1 (centres undefined) 102 % of control

# query: T/C of entry COC(=O)C1CCC2(C)CCC(=O)C(C)C2C1 (centres undefined) 101 % of control

Recorded T/C for CCOc1ccc(NC(C)=O)cc1CN(CCCl)CCBr , please? 97 % of control

Return reported T/C; argument: O=C(C1CC1)C1OC1c1ccccc1 (centres undefined) 96 % of control

State the recorded T/C for this entry: O=C(COc1ccc(Cl)c(Cl)c1)Nc1ccc[n+](Cc2cccc(S(=O)(=O)F)c2)c1 96 % of control

Would you kindly share the measured T/C for CCC1=C(C)C(=O)C2CCCCC2C1=O (centres undefined) ? 105 % of control

Reported T/C for COc1ccc(-c2cnc(=S)[nH]c2N)cc1 : what is it? 116 % of control

Returns the measured T/C for the input compound. Input: Cc1ccc2[nH]c3cc4ccncc4cc3c2c1 89 % of control

Entry Cc1cn(Cc2ccc(Cl)cc2Cl)c(C)n1 has what T/C? 94 % of control

Name the reported T/C value associated with the compound Nc1nc(N)c(-c2ccc(Cl)cc2)c(COc2cccc(NC(=O)c3ccc([N+](=O)[O-])cc3)c2)n1 104 % of control

Please report the recorded T/C for O=C(OCc1ccccc1CN1CCCC1)c1cccc(Cl)c1 . 102 % of control

Sample CC1(C)CCCC2(C)C(=O)C3CCC2C31 (centres undefined) — what was its T/C? 98 % of control

// query T/C value for entry Cc1c(O)ccc2c1OCC2=O 91 % of control

Which T/C reading was recorded for the compound O=C(c1ccccc1)C1(c2ccccc2)OC1(C(=O)c1ccccc1)c1ccccc1 (centres undefined) ? 94 % of control

Tell me the measured T/C of CC1(C)C2CCC1(C)C(/C=N/NC(N)=O)C2 (centres undefined) , please. 94 % of control

Bench note: what T/C did Clc1ccc2c(c1)/C(=C/c1ccccc1Cl)c1cc(Cl)cc(Cl)c1-2 show? 90 % of control

Consider the compound shown here: O=C(COc1cccc(Cl)c1)Nc1cccc(S(=O)(=O)O)c1 (tested in a mixture with another compound) What is its recorded T/C? 100 % of control

Query (compound): CC1(C)CN=C(c2ccc([N+](=O)[O-])cc2)S1 ; field requested: T/C 100 % of control

Could you tell me which T/C is on file for O=C(Nc1ccccc1CSc1nc2nc[nH]c(=O)c2[nH]1)c1ccc(S(=O)(=O)F)cc1 ? 114 % of control

Which value of T/C has been reported for Cc1cc(C)c(N(C)C(=O)CCC(=O)O)c(C)c1Br in the records? 97 % of control

Fill in the blank: the reported T/C of [N-]=[N+]=N/C(=C\c1ccccc1)C(=O)c1ccccc1 is ____. 94 % of control
